# Tested on: DU-145 prostate
# assay: NCI tumour cell line growth inhibition, 48 h
quantity_name: TGI

O=c1cc(N2CCN(CCCCCOc3cc(O)c4c(=O)cc(-c5ccccc5)oc4c3)CC2)c2ccccc2o1
> 100 µM

Quick one: give me TGI for each item below, same order please.
1. CO[C@@H]1C[C@H]2[C@@H]3CC[C@H]([C@@H](C)CO)[C@@]3(C)CC[C@@H]2[C@@]2(C)CC[C@H]3C[C@]312
2. COc1ccc(P2(=S)Oc3ccccc3-c3ccccc3O2)cc1
3. O=C1/C(=C/c2ccc(OC(=O)c3ccccc3)cc2)CCC/C1=C\c1ccc(OC(=O)c2ccccc2)cc1
4. CC1=C(C(=O)Nc2ccc(Cl)c(Cl)c2)C(c2cccc(Cl)c2)NC(=O)N1 (configuration not stated)
5. C=CCN1C(=O)/C(=C\c2cc(C(C)(C)C)c(O)c(C(C)(C)C)c2)NC1=S
6. Oc1c(Cl)c(Cl)c(O)c(CCNc2ccc3ncccc3c2)c1Cl

["> 100 µM", "> 100 µM", "> 100 µM", "14.3 µM", "90.3 µM", "60 µM"]

Hi! Can you tell me TGI for each of these compounds?
1. NC[C@H]1Nc2ccccc2[C@@H](O)C1O (some centres not stated)
2. CCCN(CCC)c1ccc(/C=C/c2ccc3cc(OCC)ccc3n2)cc1

1: > 100 µM; 2: > 100 µM

// for each compound below, give its TGI
1. Nc1ccc2c(=O)cc(-c3cccs3)[nH]c2n1
2. CC1C/C(=C\c2ccc(OC(=O)C(C)(C)C)cc2)C(=O)/C(=C/c2ccc(OC(=O)C(C)(C)C)cc2)C1 (configuration not stated)

1: > 100 µM; 2: > 100 µM

====

Could you please report measured TGI for the items listed next?
# System: HOP-18 NSCLC
# assay: NCI tumour cell line growth inhibition, 48 h

Field: example entries. Status: answers known.
COc1ccc(NC(=O)CC/C(CC(=O)C(C)(C)C)=N\NC(=O)C(=O)NN)cc1
> 100 µM
CCOc1ccc(N=Cc2ccc3cc(C)ccc3n2)cc1
> 100 µM
CC(=O)NC1=C(NC(C)(C)C)C(=O)c2ccccc2C1=O
28.4 µM

I need TGI for every entry listed below, if you could help.
1. Cn1nc(-c2ccccc2)c(C(=O)/C=C/c2ccc(Cl)cc2)c(N2CCCCC2)c1=O
2. CC(=O)c1cccc(C)c1C(=O)O
3. COc1ccccc1C(O)(c1ccccc1)C(O)(c1ccccc1)c1ccccc1OC (stereo not drawn)
4. COc1ccc2cc3[nH]c(=O)cc(O)c3cc2c1OC
5. O=C1[C@H]2ON(c3ccccc3)C(c3ccccc3)[C@H]2C(=O)N1c1ccc(Cc2ccc(N3C(=O)[C@@H]4ON(c5ccccc5)C(c5ccccc5)[C@@H]4C3=O)cc2)cc1 (stereo partly drawn)

["4.94 µM", "> 100 µM", "> 100 µM", "> 100 µM", "> 100 µM"]

====

Answer each item with its documented TGI.
# Tested on: A549 NSCLC
# assay: NCI tumour cell line growth inhibition, 48 h

C=C1C(=O)O[C@H]2[C@H]1CC/C(COC(=O)C(=O)c1cn(C)c3ccc(Cl)cc13)=C\CC[C@@]1(C)O[C@@H]21
4.82 µM
c1cc(N2CCCN(c3ccc(C4=NCCCN4)cc3)CC2)ccc1C1=NCCCN1
> 100 µM
c1ccc(N=C(Nc2ccccc2)N2CCCC2)cc1
> 100 µM
Cc1nc2sc(C(=O)Nc3cccc4ccccc34)c(N)c2cc1C(O)c1ccccc1 (stereo not given)
> 100 µM
Cc1n[nH]c(=O)n1/N=C/c1ccc(F)cc1
> 100 µM
CC12CCC(C(Nc3cc(C(F)(F)F)cc(C(F)(F)F)c3)C1=O)C2(C)C (stereo not given)
> 100 µM

Go through the items and report each one's TGI.
1. C[C@]12CC[C@@H]3c4cc(-c5ccc(F)cc5)c(O)cc4CC[C@H]3[C@@H]1CC[C@@H]2O
2. CC1(C)CCc2c(c(N=Nc3ccc(S(N)(=O)=O)cc3)c3ccccc3c2O)O1
3. CCN(CC)CCC(=O)c1ccc(C)cc1

1: 22.9 µM; 2: 30.2 µM; 3: > 100 µM

Dear colleague, I am looking for the recorded TGI of the following compound: O=C(CC(C(=O)c1cccs1)c1cccs1)c1ccsc1 (stereo not given)
> 100 µM
